Test system: ACHN renal
Assay: NCI-60 one-dose screen, 48 h (100 = growth as untreated, 0 = no growth, -100 = all killed)
Details: 10 µM unless noted
This is part of a sample that, as a whole, favours compounds with a hit. Of some 83,000 tested, about 20% had one in any assay.
criterion met means recorded growth is 40% or above; criterion not met means it is below 40%.

Here are 10 compounds together with their reported answers.
O=c1oc2ccc(F)cc2c(=O)n1-c1ccc(I)cc1F: criterion not met
O=C(c1nc2ccccc2[nH]1)C1C(c2cccc([N+](=O)[O-])c2)C2CC3CCCCC3N2[C@@]12C(=O)Nc1cc(Cl)ccc12 (stereo not given in full): criterion not met
O=C(Nc1ccc(N2CCNCC2)cn1)c1[nH]ncc1Nc1ncnc2sc3c(c12)CCC3: criterion not met
COc1cccc(-c2nn(C)c3sc(C(=O)NCCN4CCN(c5ccccc5F)CC4)cc23)c1: criterion met
COc1ccc(-c2nc(-c3ccccc3)c(-c3ccccc3)[nH]2)cc1OC1CCCCC1: criterion met
O=c1c2cc(F)ccc2sc2c(Nc3ccncc3)nc3ccccc3c12: criterion not met
COc1ccc2occ(C3=C(c4c[nH]c5ccccc45)C(=O)NC3=O)c2c1: criterion met
CC(=O)n1cc(-c2c[nH]c3ccccc23)c(-c2ccc(Cl)cc2)n1: criterion met
Cc1cc(Nc2ccc(OCc3ccccc3)cc2)nc2cc(O)ccc12: criterion met
Nc1ccc(-c2nn3c(CCC(=O)c4nc5ncccc5[nH]4)nnc3s2)c(O)c1: criterion met

Assess whether reported growth for Nc1cccc(Nc2cc(S(=O)(=O)O)c(N)c3c2C(=O)c2ccccc2C3=O)c1 sits at 40% or higher. criterion met

Item CC1=C(C(=O)OCC2CCN(C(=O)OC(C)(C)C)CC2)[C@H](c2cccc(Br)c2)C2=C(CC(C)(C)CC2=O)N1 with growth of 40% or above? criterion not met

Item Cn1cc(-c2ccc3ncc(-c4ccc(CC(=O)Nc5cc(C(C)(C)C)no5)cc4)nc3c2)cn1 with growth of 40% or above? criterion not met

In plain terms: is recorded growth at least 40% for O=C1/C=C/[C@@H](O)[C@@H]2C[C@@H](O)C[C@H]2/C=C/CCCCO1 ? criterion not met

Check if growth >= 40% (inclusive). Item: COc1ccc(OC)c(NC(=O)/C(C#N)=C/c2ccco2)c1 criterion met

Kindly determine if growth recorded for Cc1sc2ncn(CC(=O)Nc3ccc(S(N)(=O)=O)cc3)c(=O)c2c1C is above or exactly 40%. criterion met

Confirm if growth reported for the compound CC1=C(C(=O)OCC2CCN(C(=O)OC(C)(C)C)CC2)[C@@H](c2cccc(C#N)c2)C2=C(CC(C)(C)CC2=O)N1 is 40% or above. criterion not met

Does the reported growth for CN=c1ccc2nc3ccc(N)cc3sc-2c1 fall at or above the 40% mark? criterion met

Reported growth at or above 40%? O=C(NCCCN1CCC(N2CCCCC2)CC1)C1=Cc2cc(Br)ccc2OC1 criterion not met

Please indicate if the recorded growth for O=C(NN1C(=O)CSC1c1ccc(Cl)cc1)c1[nH]c2ccc(F)cc2c1-c1ccccc1 (stereo not given) meets or exceeds 40%. criterion met

I'd appreciate it if you could say whether CCOC(=O)c1c2c(n3cccc(Cl)c13)C(=O)c1ncccc1C2=O has growth at least equal to 40%. criterion not met

Is reported growth greater than or equal to 40% here: Cc1nc(Nc2ccccn2)sc1C(=O)/C=C/c1ccc(Cl)cc1 criterion not met

Say whether O=c1oc2ccc(Cl)cc2c(=O)n1-c1ccc(I)cc1F shows growth of 40% or more. criterion not met

In plain terms: is recorded growth at least 40% for O=c1oc2ccc(F)cc2c(=O)n1-c1ccc(Br)cc1F ? criterion not met

Please indicate if the recorded growth for CCOc1ccccc1CN1CCc2nc3cc(C(C)(C)C)[nH]n3c(=O)c2C1 meets or exceeds 40%. criterion met

Tell me whether growth is at least 40% here: CN1CCN(Cc2ccc(C(=O)Nc3cncc(C#Cc4cnc5cccnn45)c3)cc2C(F)(F)F)CC1 criterion not met
